# Target system: TDP-43 (Homo sapiens, UniProt Q13148 1-414)
# Sequence (Q13148 whole entry): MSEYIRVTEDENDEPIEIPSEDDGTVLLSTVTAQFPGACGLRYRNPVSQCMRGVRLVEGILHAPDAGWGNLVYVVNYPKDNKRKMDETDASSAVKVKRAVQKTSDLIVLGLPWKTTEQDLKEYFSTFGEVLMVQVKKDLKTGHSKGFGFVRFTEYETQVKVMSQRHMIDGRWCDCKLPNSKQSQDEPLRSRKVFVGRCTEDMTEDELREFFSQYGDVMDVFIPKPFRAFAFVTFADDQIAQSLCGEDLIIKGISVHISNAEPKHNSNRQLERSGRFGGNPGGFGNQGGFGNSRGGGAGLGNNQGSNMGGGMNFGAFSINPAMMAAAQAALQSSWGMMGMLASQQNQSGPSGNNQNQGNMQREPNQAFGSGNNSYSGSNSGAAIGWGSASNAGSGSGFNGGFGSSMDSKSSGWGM
# Test: RNA Bind-n-Seq with designed 260-mer pool; 25 mM Tris-HCl, 150 mM KCl, 3 mM MgCl2, BSA (printed 500 mg/mL), 20 units/mL SUPERase IN; pH not stated; 500 nM RNA pool, 1 h, 4 C; TDP-43 5, 50, 500 nM; high values mean tight binding
# Experimental context: protein: recombinant; tags: SBP (GST cleaved off with PreScission; pGEX-GST-SBP)
Whole data set: some 9,900 sequences, median “r (bound/input frequency ratio)” near 0.7, cut for the highest 2% near 6.5. The list comes from a sample in which the highest values are over-represented; it also holds close analogues and randomly drawn sequences.
Recorded binding signal, one value per entry.

binder="ENSMUSG00000029028.10|Lrrc47|60:64;66:70;82:87;89:93;95:99;111:116;118:122;124:128;145:149;161:166;168:172;184:188;191:195;197:201;213:218;220:224;241:245;247:2 … (ssRNA) RNA: GGGAGUUCUACAGUCCGACGAUCGCUUCGAUAUCCGCAUGCUAGACGGACCUGAUCACCCUCCCUCCCCACGUGACUGUGGUCCGCUGACAGGCUCCUGUAGCACACGCACACCUGUAGGUGUCACACACGCACACGCACACCUGUAGGUGUCACACACGCACACGCACACCUAUAGGUAUCUGUGGCACACCUGUAGGUGUCACACACGCACACCUGUAGGUGUCACACAAGCACACGCACACCUGUAGGUGUCACACACGCACACCUAGGUGUCUGUAUAGCACACGCACACCUGUAGAUGCUCUUGCGGUCGCACUAGUGUGGAAUUCUCGGGUGUCAAGG" experimental_readout="binding signal" reading="1.07 R (bound/input frequency ratio)"
binder="ENSMUSG00000061578.1057|Ksr2 (ssRNA) RNA: GGGAGUUCUACAGUCCGACGAUCGCUUCGAUAUCCGCAUGCUAUGUGAAAGUCUGAUGACUCAAAUCAAAGUUUGGUUUUUCUUUUCUACUACUCUGAAGGAAAAUCUCAGCUUGGCUAUUUCUUCAUGUUUUAAAAAUGUCUUGACUUCUCUCAGCAACCAACUUCAGGUGCCAGGAUAUGAGAUGCUAAGGUUCAGGGGUGGUGGAGGUGAUUCUAUCCAGUGGCCAGCAAUACCCAAAAGCAGCCAACCAUGAAAAUAGAGGUUUGUAAUGUACAGAAGGCUGGGGGAGCUUUCAGGGGUCUCUUGCGGUCGCACUAGUGUGGAAUUCUCGGGUGUCAAGG" experimental_readout="binding signal" reading="0.83 R (bound/input frequency ratio)"
binder="ENSMUSG00000042529.125|Kcnj12|220:224 (ssRNA) RNA: GGGAGUUCUACAGUCCGACGAUCGCUUCGAUAUCCGCAUGCUAGUGGGGCCCACUAGGGUGAAUCUGGCUUGCUCUUCUGUUUGAUGUUGUUGUACCUCAGCUGCCUCAGGGCUGGGUUUAGACACCCCUUCCCCCACCCCCACUCCGUACUCCCUGUUGUGCUUCCCUUCCUAUUUAGUCCCAGGUCUCCACCCCUUGCAGCGAGGGGGCAUAGGAAACACCAGAGUGGGUGCUUCUUAGAAAAGGACACUCAGGAAAUUACAUACGGGUCUGGGUCCCACAUCCCCAGGAAGUGGGUCAGCCUCUUGCGGUCGCACUAGUGUGGAAUUCUCGGGUGUCAAGG" experimental_readout="binding signal" reading="0.802 R (bound/input frequency ratio)"
binder="ENSMUSG00000029028.7|Lrrc47 (ssRNA) RNA: GGGAGUUCUACAGUCCGACGAUCGCUUCGAUAUCCGCAUGCUAGGUGGUGUACCCAUCCAAGACGGACCUGAUCACCCUCCCUCCCCACGUGACUGUGGUCCGCUGACAGGCUCCUGUAGGUGUGGGUGUGCUGUAGGUGUCUGUGUGGGUGUGGGUGUGCUGUAGGUGUCUGUGUGGGUGUGGGUGUGCUAUAGGUAUCUGUGGGUGUGCUGUAGGUGUCUGUGUGGGUGUGCUGUAGGUGUCUGUGUAGGUGUGGGUGUGCUGUAGGUGUCUGUGUGGGUGUGCUAGGUGUCUGUAUAGGUCUCUUGCGGUCGCACUAGUGUGGAAUUCUCGGGUGUCAAGG" experimental_readout="binding signal" reading="5.82 R (bound/input frequency ratio)"
binder="ENSMUSG00000031028.410|Tub (ssRNA) RNA: GGGAGUUCUACAGUCCGACGAUCGCUUCGAUAUCCGCAUGCUAAGAUCCCUUACCCCUCAUCCCCUCUUCUUUUUGGUCCUUGGCUGGGUAGCAAAUUGGUGAGAAGAGCAGCCUAGUCUGUAAGAGUGCAGGGCAGCUGGAACCUUAGGCAGCUCCUCUGUAUGCUACCGGCUCCACACCCUAACACUCUCCACCCUCUGCUCCAAACCAGUUCUUCUGCAGAGUGGUGAUGUUAGCUUCCCCAGCUCCUCUCCAAGUCUAGCUUUUUCUGUCCUUCUGGCUCCAAGGUGCUCUGUGUCUGUCUCUUGCGGUCGCACUAGUGUGGAAUUCUCGGGUGUCAAGG" experimental_readout="binding signal" reading="1.11 R (bound/input frequency ratio)"

The recorded binding signal for entry ENSMUSG00000029028.6|Lrrc47 (ssRNA) RNA: GGGAGUUCUACAGUCCGACGAUCGCUUCGAUAUCCGCAUGCUACUUGAAGGUGGUGUACCCAUCCAAGACGGACCUGAUCACCCUCCCUCCCCACGUGACUGUGGUCCGCUGACAGGCUCCUGUAGGUGUGGGUGUGCUGUAGGUGUCUGUGUGGGUGUGGGUGUGCUGUAGGUGUCUGUGUGGGUGUGGGUGUGCUAUAGGUAUCUGUGGGUGUGCUGUAGGUGUCUGUGUGGGUGUGCUGUAGGUGUCUGUGUAGGUGUGGGUGUGCUGUAGGUGUCUGUGUGGGUGUGCUAGGUGUCUGUCUCUUGCGGUCGCACUAGUGUGGAAUUCUCGGGUGUCAAGG equals 5.29 R (bound/input frequency ratio)

The value of binding signal measured for the binder ENSMUSG00000031028.415|Tub (ssRNA) RNA: GGGAGUUCUACAGUCCGACGAUCGCUUCGAUAUCCGCAUGCUAUUGGUCCUUGGCUGGGUAGCAAAUUGGUGAGAAGAGCAGCCUAGUCUGUAAGAGUGCAGGGCAGCUGGAACCUUAGGCAGCUCCUCUGUAUGCUACCGGCUCCACACCCUAACACUCUCCACCCUCUGCUCCAAACCAGUUCUUCUGCAGAGUGGUGAUGUUAGCUUCCCCAGCUCCUCUCCAAGUCUAGCUUUUUCUGUCCUUCUGGCUCCAAGGUGCUCUGUGUCUGUGUGUGUGUGUCUGUCUGUGUGUGUGUGUGUCUCUUGCGGUCGCACUAGUGUGGAAUUCUCGGGUGUCAAGG turned out to be 6.65 R (bound/input frequency ratio)
